The entries below come with measured koff values attached.
experimental target: T1, human HGF (R&D Systems, 294-HG/CF) (human, UniProt P14210 32-728)
T1 construct: The entry begins at QRKRR, without signal peptide; Amine-coupled to the chip in SPR and biotinylated in AlphaScreen; also called rec hHGF (R&D systems)
T1 sequence (P14210 32-728 limits assumed): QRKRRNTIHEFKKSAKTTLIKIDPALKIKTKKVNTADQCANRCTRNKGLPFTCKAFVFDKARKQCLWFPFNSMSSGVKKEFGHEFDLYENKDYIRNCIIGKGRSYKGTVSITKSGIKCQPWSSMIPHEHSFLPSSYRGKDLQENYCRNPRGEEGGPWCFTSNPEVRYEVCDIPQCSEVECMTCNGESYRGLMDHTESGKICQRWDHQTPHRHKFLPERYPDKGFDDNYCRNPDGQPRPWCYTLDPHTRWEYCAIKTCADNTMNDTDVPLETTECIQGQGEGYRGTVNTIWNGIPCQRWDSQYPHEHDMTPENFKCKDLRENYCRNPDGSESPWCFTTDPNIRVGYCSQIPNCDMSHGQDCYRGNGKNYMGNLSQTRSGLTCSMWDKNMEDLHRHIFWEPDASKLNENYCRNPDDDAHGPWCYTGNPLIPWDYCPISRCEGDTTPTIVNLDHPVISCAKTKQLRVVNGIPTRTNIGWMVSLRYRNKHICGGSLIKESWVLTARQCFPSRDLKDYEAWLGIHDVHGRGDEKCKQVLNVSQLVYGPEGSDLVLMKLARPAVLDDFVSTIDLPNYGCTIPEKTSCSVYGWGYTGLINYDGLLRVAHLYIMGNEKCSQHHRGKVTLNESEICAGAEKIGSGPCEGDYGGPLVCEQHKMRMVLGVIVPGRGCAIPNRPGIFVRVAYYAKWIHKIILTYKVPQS
assay method text: SPR (Biacore T100), HGF amine-coupled to CM5 chip, periplasmic extract at one dilution
# unit: s⁻¹ | format: bare number

binder	unit tag	koff
1F3 (VHH) VHH 1: EVQLVESGGGLVQSGGSLKLSCAASGFTFSNYFMSWVRQTPEKRLEWVAYISSGGGSTYYPDSVKGRFTISRDNAKNTLYLQMSSLKSEDTAMYYCVRQGDGYYGDYAMDYWGQGTSVTVSS VHH 2: DIQMTQSPASLSVSVGETVTITCRASENIYSNLAWYQQKQGKSPQLLVYDATHLPDGVPSRFSGSGSGTQFSLKINSLQSEDFGSYYCQHFWGTPYTFGGGTRLEIKR	s⁻¹	0.00345

Moving on to another binder below.
The recorded koff for 5B7 (VHH, anti-HGF Nanobody clone, tested as periplasmic extract; not shown: c-myc and His6 tags) VHH: EVQLVESGGGLAQAGGSLRLSCAASGRSLSNYAMGWFRQAPGKEREIVCAISRSGSITTYADSVKGRFTIAKDNAANTVYLQMNSLKPEDTAAYYCAADPMYYGIPDQNWDYWGQGTQVTVSS is 0.00175
